Listed next: entries and their corresponding Recovery rate of 50% reaction threshold value (%).
System: MIA-induced OA rats
Experiment: von Frey test, single administration to MIA-induced OA rats
Format: in vivo, rat
Settings: single dose, 1 hour after administration of test drug
Give the value in % but do not write % after it.

compound	assay.result
C=CCCCCCCCCOC(=O)/C=C/CCCCCCC [Compound 17]	19.5
CCCCCCC/C=C/C(=O)OC1CCCCC1 [Compound 18, Trans-2-decenoic acid cyclohexyl ester]	20.8
CCCCCCC/C=C/C(=O)OC [Compound 3, Trans-2-decenoic acid methyl ester]	32.4
CCCCCCC/C=C/COC(=O)/C=C/CCCCCCC [Compound 16]	39.6
CCCCCC/C=C/CC(=O)OCC [Compound 20, Trans-3-decenoic acid ethyl ester]	17.7

[ask] Entry CCCCCCC/C=C/C(=O)OCC [Compound 4, Trans-2-decenoic acid ethyl ester] has what Recovery rate of 50% reaction threshold value (%)?
[reply] 61.6

[ask] Entry CCCCCCC/C=C/C(=O)OCCC [Compound 5, Trans-2-decenoic acid propyl ester] has what Recovery rate of 50% reaction threshold value (%)?
[reply] 8.1
